- Tested on: Danio rerio larvae (5 dpf)
- test: startle response to 20-s acoustic pulses, difference vs DMSO (percentage points (treated minus DMSO)); higher = more of the behaviour than the DMSO vehicle control
- experimental-parameters: 10 µM; exposure time: 3 h pre-incubation + 3 h imaging
Counter-ions that a name gives are not always drawn.
I would appreciate it if you labelled entries yes (1) when startle response to 20-s acoustic pulses is 0.02 or higher, otherwise no (0).

{"compound": "CC(=O)NC[C@H]1CN(c2ccc(N3CCOCC3)c(F)c2)C(=O)O1", "target-or-test-system": "Danio rerio larvae (5 dpf)", "category": "yes (1)"}
{"compound": "COCCc1ccc(OCC(O)CNC(C)C)cc1 (centres undefined) [Metoprolol tartrate]", "target-or-test-system": "Danio rerio larvae (5 dpf)", "category": "yes (1)"}
{"compound": "CC(C)(C)NC(=O)[C@@H]1C[C@@H]2CCCC[C@@H]2CN1C[C@@H](O)[C@H](Cc1ccccc1)NC(=O)[C@H](CC(N)=O)NC(=O)c1ccc2ccccc2n1 [Saquinavir mesylate]", "target-or-test-system": "Danio rerio larvae (5 dpf)", "category": "no (0)"}
{"compound": "CC(C)[C@H]1CC[C@H](C(=O)N[C@H](Cc2ccccc2)C(=O)O)CC1 [Nateglinide]", "target-or-test-system": "Danio rerio larvae (5 dpf)", "category": "yes (1)"}
{"compound": "CCCCCCCCc1ccc(CCC(N)(CO)CO)cc1", "target-or-test-system": "Danio rerio larvae (5 dpf)", "category": "no (0)"}
{"compound": "C#C[C@]1(O)CC[C@H]2[C@@H]3CCC4=CC(=O)CC[C@@H]4[C@H]3CC[C@@]21CC", "target-or-test-system": "Danio rerio larvae (5 dpf)", "category": "no (0)"}
{"compound": "C[C@H]1C[C@@H]2[C@H]([C@@H](O)C[C@@]3(C)[C@H]2CC[C@]3(O)C(=O)CO)[C@@]2(C)C=CC(=O)C=C12", "target-or-test-system": "Danio rerio larvae (5 dpf)", "category": "no (0)"}
{"compound": "CC(C)c1nc(N(C)S(C)(=O)=O)nc(-c2ccc(F)cc2)c1/C=C/[C@@H](O)C[C@@H](O)CC(=O)O", "target-or-test-system": "Danio rerio larvae (5 dpf)", "category": "no (0)"}
{"compound": "CCc1nc(N)nc(N)c1-c1ccc(Cl)cc1", "target-or-test-system": "Danio rerio larvae (5 dpf)", "category": "yes (1)"}

---

A collection of compounds and their measured activity during first hour
- Test system: Danio rerio larvae (5 dpf)
- test: activity during first hour (no stimuli), difference vs DMSO (percentage points (treated minus DMSO)); higher = more of the behaviour than the DMSO vehicle control
- experimental-parameters: 10 µM; exposure time: 3 h pre-incubation + 3 h imaging
measure: activity during first hour

{"compound": "C#C[C@]1(O)CC[C@H]2[C@@H]3CCC4=CC(=O)CC[C@@H]4[C@H]3CC[C@@]21CC", "measured": -8.15}
{"compound": "OCCOCCN1CCN(C2=Nc3ccccc3Sc3ccccc32)CC1 [Quetiapine hemifumarate]", "measured": 12.9}
{"compound": "CC(=O)NC[C@H]1CN(c2ccc(N3CCOCC3)c(F)c2)C(=O)O1", "measured": 3.81}
